Each recorded value in this set is attributed to ChEMBL document CHEMBL1149202.

system_name: Integrin alpha-V/beta-3 (Homo sapiens, UniProt P05106+P06756)
Sequence (P05106 27-788 limits assumed): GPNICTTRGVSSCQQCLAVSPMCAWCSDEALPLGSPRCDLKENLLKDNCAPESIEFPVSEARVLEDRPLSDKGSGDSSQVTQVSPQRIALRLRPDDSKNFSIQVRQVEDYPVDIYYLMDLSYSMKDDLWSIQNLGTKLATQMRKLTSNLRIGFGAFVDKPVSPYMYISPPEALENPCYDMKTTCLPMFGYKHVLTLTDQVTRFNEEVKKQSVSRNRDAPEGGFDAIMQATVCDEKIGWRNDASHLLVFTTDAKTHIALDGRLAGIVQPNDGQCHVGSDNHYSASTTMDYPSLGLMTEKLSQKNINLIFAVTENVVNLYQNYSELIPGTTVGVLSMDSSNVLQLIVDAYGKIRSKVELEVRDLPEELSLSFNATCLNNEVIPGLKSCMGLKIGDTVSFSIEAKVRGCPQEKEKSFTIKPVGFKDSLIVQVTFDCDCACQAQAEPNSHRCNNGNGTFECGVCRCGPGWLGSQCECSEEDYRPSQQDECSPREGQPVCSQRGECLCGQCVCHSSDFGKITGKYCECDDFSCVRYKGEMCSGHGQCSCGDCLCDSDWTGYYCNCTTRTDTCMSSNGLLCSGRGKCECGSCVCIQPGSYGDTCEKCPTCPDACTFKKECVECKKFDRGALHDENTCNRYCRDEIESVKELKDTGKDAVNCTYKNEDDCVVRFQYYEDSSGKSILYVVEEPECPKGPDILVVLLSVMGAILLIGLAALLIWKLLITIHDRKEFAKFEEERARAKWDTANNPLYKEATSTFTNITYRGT
Sequence (P06756 31-889 limits assumed): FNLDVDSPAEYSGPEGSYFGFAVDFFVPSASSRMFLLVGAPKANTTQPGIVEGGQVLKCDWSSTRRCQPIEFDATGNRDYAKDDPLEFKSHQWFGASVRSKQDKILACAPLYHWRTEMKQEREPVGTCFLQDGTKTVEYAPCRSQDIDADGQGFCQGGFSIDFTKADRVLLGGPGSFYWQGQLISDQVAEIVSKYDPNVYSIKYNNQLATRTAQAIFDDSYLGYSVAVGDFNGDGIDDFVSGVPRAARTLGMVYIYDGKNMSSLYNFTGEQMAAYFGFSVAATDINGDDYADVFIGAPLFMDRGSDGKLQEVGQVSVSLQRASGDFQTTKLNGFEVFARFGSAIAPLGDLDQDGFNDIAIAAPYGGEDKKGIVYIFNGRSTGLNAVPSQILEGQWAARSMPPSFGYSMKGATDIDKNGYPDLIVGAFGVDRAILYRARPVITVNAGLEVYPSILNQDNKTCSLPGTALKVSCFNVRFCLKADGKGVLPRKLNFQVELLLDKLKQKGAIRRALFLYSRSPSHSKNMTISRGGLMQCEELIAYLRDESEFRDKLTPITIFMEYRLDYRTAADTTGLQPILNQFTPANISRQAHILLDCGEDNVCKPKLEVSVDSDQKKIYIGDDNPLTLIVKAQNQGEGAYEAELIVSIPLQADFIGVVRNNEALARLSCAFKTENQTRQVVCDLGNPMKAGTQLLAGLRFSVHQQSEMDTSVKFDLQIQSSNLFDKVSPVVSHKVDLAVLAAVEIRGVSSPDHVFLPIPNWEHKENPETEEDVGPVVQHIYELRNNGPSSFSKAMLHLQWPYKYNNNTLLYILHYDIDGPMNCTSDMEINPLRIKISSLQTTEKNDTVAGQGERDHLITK
Sequence (P06756 891-1048 limits assumed): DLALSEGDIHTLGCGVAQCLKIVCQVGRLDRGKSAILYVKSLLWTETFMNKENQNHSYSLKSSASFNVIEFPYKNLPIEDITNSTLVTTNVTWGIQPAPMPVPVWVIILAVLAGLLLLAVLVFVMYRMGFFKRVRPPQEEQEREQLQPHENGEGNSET
assay_procedure: Binding affinity towards vitronectin receptor (AlphaV-beta3 integrin).
Threshold 2 nM. Ki below it: yes. Ki at it or above: no.

Example entries and their recorded answers appear below.
O=C(O)C[C@@H](NC(=O)[C@H]1CC(=O)N(c2cccc(NC(=O)NCc3ccccc3)c2)C1)c1cccc(F)c1 | no
O=C(O)CC(NC(=O)C1CC(=O)N(c2cccc(NC3=NCCCN3)c2)C1)c1ccc2c(c1)OCO2 (stereo not drawn) | yes

Determine whether this compound shows Ki lower than 2 nM (ties excluded): O=C(O)CC(NC(=O)C1CC(=O)N(c2cccc(NC(=O)NCc3ccccc3)c2)C1)c1ccc2c(c1)OCO2 (stereo not drawn)
no

Determine whether this compound shows Ki lower than 2 nM (ties excluded): O=C(O)C[C@@H](NC(=O)[C@@H]1CC(=O)N(c2cccc(NC(=O)NCc3ccccc3)c2)C1)c1cccc(F)c1
no

Determine whether this compound shows Ki lower than 2 nM (ties excluded): O=C(O)CC(NC(=O)C1CC(=O)N(c2cccc(NC3=NCCN3)c2)C1)c1cccnc1 (stereo not drawn)
no

Determine whether this compound shows Ki lower than 2 nM (ties excluded): O=C(O)C[C@H](NC(=O)[C@@H]1CC(=O)N(c2cccc(NC(=O)NCc3ccccc3)c2)C1)c1cccc(F)c1
no

Determine whether this compound shows Ki lower than 2 nM (ties excluded): NC(N)=Nc1ccc(Cl)c(N2CC(C(=O)NC(CC(=O)O)c3cccnc3)CC2=O)c1 (stereo not drawn)
no

Determine whether this compound shows Ki lower than 2 nM (ties excluded): O=C(O)CC(NC(=O)C1CC(=O)N(c2cc(NC3=NCCCN3)ccc2F)C1)c1ccc2c(c1)OCO2 (stereo not drawn)
yes

###

system_name: Integrin alpha-V/beta-3 (Homo sapiens, UniProt P05106+P06756)
assay_procedure: Binding affinity towards vitronectin receptor (AlphaV-beta3 integrin).
endpoint_name: log10 Ki (log10 of the value in nM)
In our notation, the value equals log10 of Ki in nM.

Example entries and their recorded answers appear below.
O=C(O)CC(NC(=O)C1CC(=O)N(c2cccc(NC(=O)NCc3ccccc3)c2)C1)c1cccc(F)c1 (stereo not given) | 1.05
O=C(O)C[C@H](NC(=O)[C@@H]1CC(=O)N(c2cccc(NC3=NCCCN3)c2)C1)c1ccc2c(c1)OCO2 | -1.00
O=C(O)C[C@@H](NC(=O)[C@@H]1CC(=O)N(c2cccc(NC3=NCCCN3)c2)C1)c1ccc2c(c1)OCO2 | 0.86
N=C(N)Nc1cccc(N2CC(C(=O)NC(CC(=O)O)c3cccnc3)CC2=O)c1 (stereo not given) | 1.22

Next, consider the following molecule.
I have this molecule here, NC(N)=Nc1ccc(F)c(N2CC(C(=O)NC(CC(=O)O)c3cccnc3)CC2=O)c1 (stereo not given) , and I need its recorded log10 Ki.
0.46

###

system_name: Integrin alpha-IIb/beta-3 (Homo sapiens, UniProt P05106+P08514)
Sequence (P08514 32-887 limits assumed, one chain of several): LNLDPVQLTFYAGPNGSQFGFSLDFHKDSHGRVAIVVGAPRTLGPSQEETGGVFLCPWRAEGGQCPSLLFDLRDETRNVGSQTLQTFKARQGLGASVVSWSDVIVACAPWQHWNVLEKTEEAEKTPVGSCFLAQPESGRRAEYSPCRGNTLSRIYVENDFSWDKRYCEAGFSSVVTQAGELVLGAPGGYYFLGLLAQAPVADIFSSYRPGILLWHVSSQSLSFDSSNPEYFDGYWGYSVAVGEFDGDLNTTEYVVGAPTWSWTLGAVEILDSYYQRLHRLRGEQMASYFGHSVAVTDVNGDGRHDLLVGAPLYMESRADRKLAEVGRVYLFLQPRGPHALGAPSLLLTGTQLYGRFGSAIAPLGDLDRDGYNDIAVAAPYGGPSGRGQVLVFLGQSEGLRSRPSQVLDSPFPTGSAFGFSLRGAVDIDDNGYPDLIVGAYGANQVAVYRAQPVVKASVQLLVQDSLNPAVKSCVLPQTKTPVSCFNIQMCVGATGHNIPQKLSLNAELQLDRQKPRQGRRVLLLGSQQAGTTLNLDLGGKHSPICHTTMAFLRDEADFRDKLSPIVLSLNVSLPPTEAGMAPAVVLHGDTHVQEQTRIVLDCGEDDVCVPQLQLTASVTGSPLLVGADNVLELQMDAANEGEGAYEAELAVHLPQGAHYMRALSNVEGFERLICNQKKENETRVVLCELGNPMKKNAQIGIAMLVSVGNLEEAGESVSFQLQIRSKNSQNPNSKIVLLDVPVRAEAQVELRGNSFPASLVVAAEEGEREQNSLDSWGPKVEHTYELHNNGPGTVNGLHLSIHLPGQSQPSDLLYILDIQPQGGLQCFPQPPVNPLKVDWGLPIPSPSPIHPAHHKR
Sequence (P08514 891-1039 limits assumed, one chain of several): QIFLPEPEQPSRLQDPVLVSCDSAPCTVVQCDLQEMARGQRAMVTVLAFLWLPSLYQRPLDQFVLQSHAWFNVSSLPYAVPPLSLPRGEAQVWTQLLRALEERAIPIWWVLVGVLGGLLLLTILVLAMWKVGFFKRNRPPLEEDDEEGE
assay_procedure: Affinity for alphaIIb-beta3 integrin
Ki values, listed per item

O=C(O)C[C@@H](NC(=O)[C@@H]1CC(=O)N(c2cccc(NC3=NCCCN3)c2)C1)c1ccc2c(c1)OCO2 | > 25 µM
O=C(O)C[C@H](NC(=O)[C@@H]1CC(=O)N(c2cccc(NC3=NCCCN3)c2)C1)c1ccc2c(c1)OCO2 | 2.1 µM
O=C(O)C[C@@H](NC(=O)[C@H]1CC(=O)N(c2cccc(NC(=O)NCc3ccccc3)c2)C1)c1cccc(F)c1 | > 25 µM
O=C(O)C[C@H](NC(=O)[C@@H]1CC(=O)N(c2cccc(NC(=O)NCc3ccccc3)c2)C1)c1cccc(F)c1 | > 25 µM
O=C(O)C[C@H](NC(=O)[C@H]1CC(=O)N(c2cccc(NC(=O)NCc3ccccc3)c2)C1)c1cccc(F)c1 | > 25 µM

Next, consider the following compound.
Fill in the recorded Ki for this compound, with Integrin alpha-IIb/beta-3 (Homo sapiens, UniProt P05106+P08514) as test system: O=C(O)C[C@@H](NC(=O)[C@@H]1CC(=O)N(c2cccc(NC(=O)NCc3ccccc3)c2)C1)c1cccc(F)c1
> 25 µM
